These measurements were taken from ChEMBL document CHEMBL1138071.

- target-desc: Metabotropic glutamate receptor 5 (Homo sapiens, UniProt P41594)
- Sequence (P41594 whole entry): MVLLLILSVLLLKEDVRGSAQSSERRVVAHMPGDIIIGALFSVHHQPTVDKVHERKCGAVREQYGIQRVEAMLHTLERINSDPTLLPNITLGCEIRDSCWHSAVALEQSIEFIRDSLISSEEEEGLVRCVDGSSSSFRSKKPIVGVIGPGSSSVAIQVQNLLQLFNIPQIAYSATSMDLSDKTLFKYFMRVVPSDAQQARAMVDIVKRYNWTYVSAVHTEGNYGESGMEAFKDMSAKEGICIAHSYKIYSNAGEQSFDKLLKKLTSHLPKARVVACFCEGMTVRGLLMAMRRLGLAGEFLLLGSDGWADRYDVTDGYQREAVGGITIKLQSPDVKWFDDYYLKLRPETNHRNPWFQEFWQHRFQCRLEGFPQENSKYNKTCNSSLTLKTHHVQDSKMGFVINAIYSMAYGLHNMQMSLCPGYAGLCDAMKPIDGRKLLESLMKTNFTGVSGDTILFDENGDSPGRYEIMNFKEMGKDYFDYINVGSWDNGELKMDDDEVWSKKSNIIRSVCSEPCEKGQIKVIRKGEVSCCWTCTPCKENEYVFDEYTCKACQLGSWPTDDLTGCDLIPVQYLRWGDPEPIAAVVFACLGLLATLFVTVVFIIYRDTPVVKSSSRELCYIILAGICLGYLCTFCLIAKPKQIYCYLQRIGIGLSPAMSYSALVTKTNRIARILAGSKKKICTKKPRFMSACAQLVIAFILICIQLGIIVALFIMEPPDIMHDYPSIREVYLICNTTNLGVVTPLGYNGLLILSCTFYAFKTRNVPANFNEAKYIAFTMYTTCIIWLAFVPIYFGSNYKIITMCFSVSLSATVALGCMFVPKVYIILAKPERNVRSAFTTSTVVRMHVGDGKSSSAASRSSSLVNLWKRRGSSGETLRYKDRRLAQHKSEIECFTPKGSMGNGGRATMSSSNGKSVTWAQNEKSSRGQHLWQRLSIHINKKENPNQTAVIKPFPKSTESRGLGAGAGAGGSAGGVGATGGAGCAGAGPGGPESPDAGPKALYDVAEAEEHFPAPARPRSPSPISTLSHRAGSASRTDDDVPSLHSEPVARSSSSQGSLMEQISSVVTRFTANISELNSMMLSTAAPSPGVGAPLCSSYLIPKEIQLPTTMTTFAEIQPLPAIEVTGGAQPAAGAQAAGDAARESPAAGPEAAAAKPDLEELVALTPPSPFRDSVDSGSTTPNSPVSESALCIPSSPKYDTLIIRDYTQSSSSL
- method-description: Antagonist activity against mGluR5 expressed in CHO cells assessed as inhibition of agonist-induced phosphoinositide hydrolysis
quantity-kind: IC50 (µM)
Numbers only, in µM.

Required: IC50, one value per compound below.
1. Cc1cccc(NC(=O)c2cccc(-c3ccccc3)c2)n1
2. Cc1cccc(NC(=O)c2cccc(I)c2)n1
3. Cc1cccc(NC(=O)c2cccc(C#N)c2)n1
4. Cc1csc(NC(=O)c2cccc(Cl)c2)n1
5. Cc1cccc(C(=O)Nc2cccc(C)n2)c1

[18.3, 10.8, 5.33, 15, 5.9]

---

- target-desc: Metabotropic glutamate receptor 5 (Rattus norvegicus)
- Sequence (P31424 whole entry): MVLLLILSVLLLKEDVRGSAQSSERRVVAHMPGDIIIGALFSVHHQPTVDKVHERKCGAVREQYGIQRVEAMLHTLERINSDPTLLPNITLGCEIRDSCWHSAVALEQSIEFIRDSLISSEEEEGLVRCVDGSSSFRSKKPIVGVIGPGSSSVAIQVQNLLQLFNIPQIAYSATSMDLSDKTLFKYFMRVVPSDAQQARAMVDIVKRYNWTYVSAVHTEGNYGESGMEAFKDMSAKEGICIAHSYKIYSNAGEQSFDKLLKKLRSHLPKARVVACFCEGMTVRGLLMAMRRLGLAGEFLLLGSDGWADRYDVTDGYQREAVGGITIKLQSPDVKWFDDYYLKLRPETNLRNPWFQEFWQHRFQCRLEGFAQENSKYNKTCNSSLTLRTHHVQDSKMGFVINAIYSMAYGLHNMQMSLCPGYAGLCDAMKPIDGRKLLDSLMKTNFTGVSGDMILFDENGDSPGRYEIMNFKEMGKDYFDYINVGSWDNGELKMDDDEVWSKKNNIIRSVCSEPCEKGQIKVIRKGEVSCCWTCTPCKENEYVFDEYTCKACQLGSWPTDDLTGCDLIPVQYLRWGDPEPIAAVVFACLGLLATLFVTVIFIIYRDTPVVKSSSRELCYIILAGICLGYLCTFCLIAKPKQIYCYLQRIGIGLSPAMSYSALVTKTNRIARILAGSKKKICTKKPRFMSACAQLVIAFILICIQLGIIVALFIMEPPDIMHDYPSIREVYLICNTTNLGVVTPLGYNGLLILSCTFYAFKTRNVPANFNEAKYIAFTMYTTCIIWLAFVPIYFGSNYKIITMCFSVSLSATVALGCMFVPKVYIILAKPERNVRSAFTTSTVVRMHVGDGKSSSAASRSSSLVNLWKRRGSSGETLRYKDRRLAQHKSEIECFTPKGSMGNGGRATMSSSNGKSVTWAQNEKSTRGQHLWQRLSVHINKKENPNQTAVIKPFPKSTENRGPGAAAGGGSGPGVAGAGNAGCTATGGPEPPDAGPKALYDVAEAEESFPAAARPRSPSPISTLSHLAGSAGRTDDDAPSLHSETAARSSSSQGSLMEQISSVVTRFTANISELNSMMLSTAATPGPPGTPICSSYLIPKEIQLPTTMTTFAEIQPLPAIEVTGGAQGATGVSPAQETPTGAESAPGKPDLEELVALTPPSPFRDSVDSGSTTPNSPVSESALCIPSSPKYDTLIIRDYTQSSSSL
- method-description: Inhibition of [3H]MPEP binding to mGluR5 in rat brain membrane
pIC50: −log10 of the molar value.
Param threshold (5) applies to pIC50; output label 1 when value >= threshold, label 0 when value < threshold.

// below: answered compounds
Cc1cccc(C(=O)Nc2cccc(C)n2)c1 = label 1
Cc1ccc(O)c(/N=N/c2ccccc2)n1 = label 1
Cc1cccc(NC(=O)c2cccc(OCc3ccccc3)c2)n1 = label 0
O=C(Nc1ccccn1)c1ccccc1 = label 0
Cc1cccc(NC(=O)c2cccc3ccccc23)n1 = label 0

Is it the case that Cc1csc(NC(=O)c2ccccc2)n1 has pIC50 reaching or exceeding 5?
label 0

Is it the case that Cc1cccc(NC(=O)c2cccc(I)c2)n1 has pIC50 reaching or exceeding 5?
label 1

Is it the case that Cc1cccc(NC(=O)c2cccc(Br)c2)n1 has pIC50 reaching or exceeding 5?
label 1

Is it the case that Cc1csc(NC(=O)c2cccc(Cl)c2)n1 has pIC50 reaching or exceeding 5?
label 1

Is it the case that O=C(Nc1cccc(Cl)n1)c1cccc(Cl)c1 has pIC50 reaching or exceeding 5?
label 1

Is it the case that Cc1cccc(NC(=O)c2cccc(OCCc3ccccc3)c2)n1 has pIC50 reaching or exceeding 5?
label 0

Is it the case that Cc1cccc(NC(=O)c2cccc(Cl)c2)n1 has pIC50 reaching or exceeding 5?
label 1

Is it the case that Cc1cccc(NC(=O)c2cccc(C(F)(F)F)c2)n1 has pIC50 reaching or exceeding 5?
label 0

---

- target-desc: UniProt P41594
- method-description: Antagonist activity against mGluR5 expressed in CHO cells assessed as inhibition of agonist-induced phosphoinositide hydrolysis
quantity-kind: pIC50
Numbers only, as −log10 of the molar value.

Would you please look over these solved cases?
O=C(Nc1cccc(Cl)n1)c1cccc(Cl)c1 = 4.90
COc1cccc(C(=O)Nc2cccc(C)n2)c1 = 4.34

// switching to the query molecule
Give its pIC50 value. Item: Cc1cccc(NC(=O)c2cccc(Br)c2)n1
5.26

---

- target-desc: Metabotropic glutamate receptor 5 (Rattus norvegicus)
- method-description: Inhibition of [3H]MPEP binding to mGluR5 in rat brain membrane
- Format: cell membranes
Give IC50 for every item shown.
Numbers only, in µM.

Cc1cccc(NC(=O)c2cccc(-c3ccccc3)c2)n1 = 7.3
Cc1cccc(NC(=O)c2cccc(OS(C)(=O)=O)c2)n1 = 83.6
Cc1cccc(NC(=O)c2ccccc2)n1 = 35
Cc1cccc(/C=C/c2ccccc2)n1 = 1.08
Cc1cccc(NC(=O)c2cccc(C#N)c2)n1 = 0.33

Required: IC50, one value per compound below.
1. Cc1cccc(NC(=O)c2cccc(Oc3ccccc3)c2)n1
2. COc1cccc(C(=O)Nc2nc(C)cs2)c1
3. COc1cccc(C(=O)Nc2cccc(C)n2)c1

[57, 9.1, 9.76]
